Tested on: SK-BR-3
Test: % viability in DMSO, miRNA mimic relative to NTC in DMSO; higher = less cytotoxic
Conditions: drug used in drug arm: lapatinib 1 uM; treatment: DMSO
# note: boundary value 50% maps to Not satisfied; % viability in DMSO below it maps to Satisfied

These recorded examples may help you get a feel for the data.
MONOMER_SEQUENCE: GAGCCAGUUGGACAGGAGC
CLASS: Not satisfied

MONOMER_SEQUENCE: CAAUGUUUCCACAGUGCAUCAC
CLASS: Satisfied

MONOMER_SEQUENCE: AACGCCAUUAUCACACUAAAUA
CLASS: Satisfied

MONOMER_SEQUENCE: UGUCAGUUUGUCAAAUACCCCA
CLASS: Not satisfied

MONOMER_SEQUENCE: GAAUGUUGCUCGGUGAACCCCU
CLASS: Satisfied

MONOMER_SEQUENCE: AAGUGCCGCCAUCUUUUGAGUGU
CLASS: Satisfied

MONOMER_SEQUENCE: GUCAUACACGGCUCUCCUCUCU
CLASS: Satisfied

MONOMER_SEQUENCE: UAGGUAGUUUCAUGUUGUUGGG
CLASS: Satisfied

MONOMER_SEQUENCE: ACAGUAGAGGGAGGAAUCGCAG
CLASS: Not satisfied

MONOMER_SEQUENCE: AGUUAAUGAAUCCUGGAAAGU
CLASS: Satisfied

Could you now consider this next sequence?
Problem: For the sequence CAAAAGUAAUUGUGGAUUUUGU , is % viability in DMSO under 50%?
Satisfied
